From: the Immune Epitope Database (IEDB)

# system-name: HLA-A*26:02
# experimental-protocol: IEDB peptide-MHC binding, purified MHC/competitive/fluorescence; filed as Kd, often an IC50 or EC50 that approximates it; bounds were set here for any values at or beyond the usual limits of such assays
# experimental-parameters: source organism: Influenza A virus (A/Quail/Shanghai/8/96(H9N2))
pKd: −log10 of the molar value.
observed-property: pKd

1. LVGGREWSY ≤ 4.70

----------
# system-name: HLA-A*03:01
# experimental-protocol: IEDB peptide-MHC binding, purified MHC/competitive/radioactivity; filed as Kd, often an IC50 or EC50 that approximates it; bounds were set here for any values at or beyond the usual limits of such assays
# experimental-parameters: source organism: Hepacivirus hominis
pKd: −log10 of the molar value.
observed-property: pKd

1) HSKRKCDEL ≤ 4.11

----------
# system-name: HLA-B*51:01
# experimental-protocol: IEDB peptide-MHC binding, purified MHC/competitive/radioactivity; filed as Kd, often an IC50 or EC50 that approximates it; bounds were set here for any values at or beyond the usual limits of such assays
# experimental-parameters: source organism: Mammarenavirus lassaense
pKd: −log10 of the molar value.
observed-property: pKd

1. FPAGLTYSQL 5.08
2. FPAIFSAEV 7.07

----------
# system-name: HLA-A*24:02
# experimental-protocol: IEDB peptide-MHC binding, purified MHC/direct/fluorescence; filed as Kd, often an IC50 or EC50 that approximates it; bounds were set here for any values at or beyond the usual limits of such assays
# experimental-parameters: source organism: Salmonella enterica subsp. enterica serovar Choleraesuis str. SC-B67
pKd: −log10 of the molar value.
observed-property: pKd

1) IWARTYFFK 6.53

----------
Form field: pKd (one value per entry).
# system-name: HLA-A*29:02
# experimental-protocol: IEDB peptide-MHC binding, purified MHC/competitive/radioactivity; filed as Kd, often an IC50 or EC50 that approximates it; bounds were set here for any values at or beyond the usual limits of such assays
# experimental-parameters: source organism: Mammarenavirus guanaritoense
pKd: −log10 of the molar value.
observed-property: pKd

1) KVINLSELL 4.92
2) FFQDIPIFF 10.10
3) CSKILDLCY 5.44
4) WCEFVDFSV 5.61

----------
# system-name: HLA-B*46:01
# experimental-protocol: IEDB peptide-MHC binding, purified MHC/direct/fluorescence; filed as Kd, often an IC50 or EC50 that approximates it; bounds were set here for any values at or beyond the usual limits of such assays
# experimental-parameters: source organism: H9N2 subtype Influenza A virus (A/swine/Korea/S83/2004(H9N2))
observed-property: Kd

1. HFQKDAKVL ≥ 20 µM

----------
# system-name: HLA-B*15:01
# experimental-protocol: IEDB peptide-MHC binding, purified MHC/direct/fluorescence; filed as Kd, often an IC50 or EC50 that approximates it; bounds were set here for any values at or beyond the usual limits of such assays
# experimental-parameters: source organism: Vibrio vulnificus
pKd: −log10 of the molar value.
observed-property: pKd

1) IMDEPTSSL 6.76

----------
# system-name: HLA-B*15:01
# experimental-protocol: IEDB peptide-MHC binding, purified MHC/direct/fluorescence; filed as Kd, often an IC50 or EC50 that approximates it; bounds were set here for any values at or beyond the usual limits of such assays
# experimental-parameters: source organism: Corynebacterium glutamicum
observed-property: Kd (µM)

1) VLPVPGASV 3.81

----------
# system-name: HLA-B*15:01
# experimental-protocol: IEDB peptide-MHC binding, purified MHC/competitive/radioactivity; filed as Kd, often an IC50 or EC50 that approximates it; bounds were set here for any values at or beyond the usual limits of such assays
# experimental-parameters: source organism: Dengue virus 3 Martinique/1243/1999
Reported Kd values for the following sequences.
observed-property: Kd (nM)

1. IQNSGGTSIF 3.01
2. LGKCGSCVY 110

----------
# system-name: HLA-A*30:01
# experimental-protocol: IEDB peptide-MHC binding, purified MHC/competitive/fluorescence; filed as Kd, often an IC50 or EC50 that approximates it; bounds were set here for any values at or beyond the usual limits of such assays
# experimental-parameters: source organism: Zaire ebolavirus
pKd: −log10 of the molar value.
observed-property: pKd

1. FIYFGKKQY ≤ 4.70

----------
# system-name: HLA-A*26:01
# experimental-protocol: IEDB peptide-MHC binding, purified MHC/competitive/fluorescence; filed as Kd, often an IC50 or EC50 that approximates it; bounds were set here for any values at or beyond the usual limits of such assays
# experimental-parameters: source organism: Zaire ebolavirus
pKd: −log10 of the molar value.
observed-property: pKd

1) GRYNLISPK ≤ 4.70
2) NSTHNTPVY ≤ 4.70
3) SLLHESTLK ≤ 4.70
4) FIYFGKKQY 5.64
5) LEFNSSLAI ≤ 4.70

----------
# system-name: HLA-B*15:01
# experimental-protocol: IEDB peptide-MHC binding, purified MHC/competitive/radioactivity; filed as Kd, often an IC50 or EC50 that approximates it; bounds were set here for any values at or beyond the usual limits of such assays
# experimental-parameters: source organism: Vaccinia virus Copenhagen
pKd: −log10 of the molar value.
observed-property: pKd

1) HMAYSFQTF 9.61
2) TSGKYFSTF 7.07

----------
# system-name: HLA-B*44:02
# experimental-protocol: IEDB peptide-MHC binding, purified MHC/competitive/radioactivity; filed as Kd, often an IC50 or EC50 that approximates it; bounds were set here for any values at or beyond the usual limits of such assays
# experimental-parameters: source organism: Dengue virus 1 Brazil/97-11/1997
pKd: −log10 of the molar value.
Listing of recorded pKd by entry.
observed-property: pKd

1. IESEKNETW 7.06
2. ERSWNSGYDW 6.07
3. NEHKSTWHY 7.08
4. NEMVLLTMK 6.06
5. IEEVMRSRW 6.75

----------
# system-name: HLA-B*27:03
# experimental-protocol: IEDB peptide-MHC binding, purified MHC/direct/fluorescence; filed as Kd, often an IC50 or EC50 that approximates it; bounds were set here for any values at or beyond the usual limits of such assays
# experimental-parameters: source organism: Campylobacter jejuni
observed-property: Kd

1. SFWFFHPPY ≥ 20 µM

----------
# system-name: HLA-A*02:01
# experimental-protocol: IEDB peptide-MHC binding, purified MHC/competitive/fluorescence; bounds were set here for any values at or beyond the usual limits of such assays
# experimental-parameters: source organism: Mycobacterium tuberculosis
observed-property: IC50 (nM)

1) GLFLTTEAV 50

----------
# system-name: HLA-B*48:01
# experimental-protocol: IEDB peptide-MHC binding, purified MHC/direct/fluorescence; filed as Kd, often an IC50 or EC50 that approximates it; bounds were set here for any values at or beyond the usual limits of such assays
# experimental-parameters: source organism: Mammarenavirus lassaense
observed-property: Kd

1. SHGIDVTDL ≥ 20 µM

----------
# system-name: HLA-B*39:01
# experimental-protocol: IEDB peptide-MHC binding, purified MHC/competitive/fluorescence; filed as Kd, often an IC50 or EC50 that approximates it; bounds were set here for any values at or beyond the usual limits of such assays
# experimental-parameters: source organism: Bacillus thuringiensis str. Al Hakam
observed-property: Kd (nM)

1) EHFLGIWGL 17.9

----------
# system-name: HLA-A*03:01
# experimental-protocol: IEDB peptide-MHC binding, purified MHC/competitive/fluorescence; bounds were set here for any values at or beyond the usual limits of such assays
# experimental-parameters: source organism: Monodelphis domestica
observed-property: IC50

1. FLLPILSQIYT ≥ 20 µM

----------
# system-name: HLA-A*01:01
# experimental-protocol: IEDB peptide-MHC binding, purified MHC/competitive/radioactivity; filed as Kd, often an IC50 or EC50 that approximates it; bounds were set here for any values at or beyond the usual limits of such assays
# experimental-parameters: source organism: Mammarenavirus lassaense
pKd: −log10 of the molar value.
observed-property: pKd

1. YEEFCNAVY 5.27
2. PEDPVEVALY ≤ 4.39
3. VGRAWENTI ≤ 4.57

----------
# system-name: HLA-B*07:02
# experimental-protocol: IEDB peptide-MHC binding, purified MHC/competitive/radioactivity; filed as Kd, often an IC50 or EC50 that approximates it; bounds were set here for any values at or beyond the usual limits of such assays
# experimental-parameters: source organism: Vaccinia virus WR
pKd: −log10 of the molar value.
Measured pKd by item
observed-property: pKd

1) SPEGEETII 4.95
2) KPVSDLYTSM 9.53
3) YPSMFTLRHI 7.81

----------
# system-name: HLA-B*44:02
# experimental-protocol: IEDB peptide-MHC binding, purified MHC/direct/fluorescence; filed as Kd, often an IC50 or EC50 that approximates it; bounds were set here for any values at or beyond the usual limits of such assays
# experimental-parameters: source organism: H9N2 subtype Influenza A virus (A/swine/Korea/S83/2004(H9N2))
pKd: −log10 of the molar value.
observed-property: pKd

1) HFQKDAKVL ≤ 4.70
